- Species: Rattus norvegicus
- Test summary: Open TG-GATES - Regimen: Daily Repeat
- Format: toxicity, organism-based, Sprague-Dawley
- Set-up: regimen Daily Repeat, gender Male, age 6 weeks
- Assay context: in vivo, po, 0 mg/kg, […], tissue Plasma, route gavage, dose level Control, time 7 day
Assay metric: TBIL (mg/dL)
Respond with the bare value in mg/dL.

// recorded TBIL for C[C@H]1O[C@H](O[C@H]2[C@H](O)[C@@H](O)[C@@H](O[C@H]3[C@H](O)[C@@H](O)C(O)O[C@@H]3CO)O[C@@H]2CO)[C@H](O)[C@@H](O)[C@@H]1N[C@H]1C=C(CO)[C@@H](O)[C@H](O)[C@H]1O (some centres undefined) : 0.052

// recorded TBIL for C[C@H]1C(=O)O[C@@H]2CCN3CC=C(COC(=O)[C@](C)(O)[C@]1(C)O)[C@H]23 : 0.002

// recorded TBIL for OCCN1CCN(CCCN2c3ccccc3Sc3ccc(C(F)(F)F)cc32)CC1 : 0.3

// recorded TBIL for O=C1CN(/N=C/c2ccc([N+](=O)[O-])o2)C(=O)N1 : 0.2

// recorded TBIL for Cn1cc[nH]c1=S : 0.002

// recorded TBIL for O=[N+]([O-])c1ccc(O)c([N+](=O)[O-])c1 : 0.028

// recorded TBIL for C=C(C)[C@H]1Cc2c(ccc3c2O[C@@H]2COc4cc(OC)c(OC)cc4[C@@H]2C3=O)O1 : 0.034

// recorded TBIL for CCOC(=O)C(C)(C)Oc1ccc(Cl)cc1 [CLOFIBRATE] : 0.2

// recorded TBIL for Cc1cccc(C)c1OCC(C)N (centres undefined) : 0.002

###

- Species on record: Rattus norvegicus
- Test summary: Open TG-GATES - Regimen: Daily Repeat
- Assay type: toxicity, organism-based, Sprague-Dawley
- Parameters: regimen Daily Repeat, gender Male, age 6 weeks
- Assay context: in vivo, po, 0 mg/kg, 72 h, tissue Blood, route gavage, dose level Control, time 3 day
Would you kindly list MCHC for each of these compounds?
Respond with the bare value in %.

// recorded MCHC for C=C(C)[C@H]1Cc2c(ccc3c2O[C@@H]2COc4cc(OC)c(OC)cc4[C@@H]2C3=O)O1 : 32.4

// recorded MCHC for OCCN1CCN(CCCN2c3ccccc3Sc3ccc(C(F)(F)F)cc32)CC1 : 33.3

// recorded MCHC for C[C@H]1C(=O)O[C@@H]2CCN3CC=C(COC(=O)[C@](C)(O)[C@]1(C)O)[C@H]23 : 34.3

// recorded MCHC for O=[N+]([O-])c1ccc(O)c([N+](=O)[O-])c1 : 33.5

// recorded MCHC for Cn1cc[nH]c1=S : 36.1

###

- Organism: Rattus norvegicus
- Test summary: Open TG-GATES - Regimen: Daily Repeat
- Assay type: toxicity, organism-based, Sprague-Dawley
- Design: regimen Daily Repeat, gender Male, age 6 weeks
- Assay context: in vivo, po, 0 mg/kg, […], tissue Plasma, route gavage, dose level Control, time 28 day
The label is t for TBIL below 0.04 mg/dL and f for TBIL equal to or exceeding 0.04 mg/dL.

### Prompt Strictly below 0.04 mg/dL in TBIL? C[C@H]1O[C@H](O[C@H]2[C@H](O)[C@@H](O)[C@@H](O[C@H]3[C@H](O)[C@@H](O)C(O)O[C@@H]3CO)O[C@@H]2CO)[C@H](O)[C@@H](O)[C@@H]1N[C@H]1C=C(CO)[C@@H](O)[C@H](O)[C@H]1O (some centres undefined)
### Response f

### Prompt Strictly below 0.04 mg/dL in TBIL? C=C(C)[C@H]1Cc2c(ccc3c2O[C@@H]2COc4cc(OC)c(OC)cc4[C@@H]2C3=O)O1
### Response t

### Prompt Strictly below 0.04 mg/dL in TBIL? CCOC(=O)C(C)(C)Oc1ccc(Cl)cc1 [CLOFIBRATE]
### Response f

### Prompt Strictly below 0.04 mg/dL in TBIL? OCCN1CCN(CCCN2c3ccccc3Sc3ccc(C(F)(F)F)cc32)CC1
### Response f

### Prompt Strictly below 0.04 mg/dL in TBIL? O=C1CN(/N=C/c2ccc([N+](=O)[O-])o2)C(=O)N1
### Response f

### Prompt Strictly below 0.04 mg/dL in TBIL? C[C@H]1C(=O)O[C@@H]2CCN3CC=C(COC(=O)[C@](C)(O)[C@]1(C)O)[C@H]23
### Response t

### Prompt Strictly below 0.04 mg/dL in TBIL? Cc1cccc(C)c1OCC(C)N (centres undefined)
### Response t

### Prompt Strictly below 0.04 mg/dL in TBIL? Cn1cc[nH]c1=S
### Response t

### Prompt Strictly below 0.04 mg/dL in TBIL? O=[N+]([O-])c1ccc(O)c([N+](=O)[O-])c1
### Response t

###

Would you kindly list Fbg for each of these compounds?
- Species: Rattus norvegicus
- Test summary: Open TG-GATES - Regimen: Daily Repeat
- Format: toxicity, organism-based, Sprague-Dawley
- Design: regimen Daily Repeat, gender Male, age 6 weeks
- Assay context: in vivo, po, 0 mg/kg, 72 h, tissue Blood, route gavage, dose level Control, time 3 day
Respond with the bare value in mg/dL.

// recorded Fbg for C[C@H]1C(=O)O[C@@H]2CCN3CC=C(COC(=O)[C@](C)(O)[C@]1(C)O)[C@H]23 : 311.8

// recorded Fbg for C=C(C)[C@H]1Cc2c(ccc3c2O[C@@H]2COc4cc(OC)c(OC)cc4[C@@H]2C3=O)O1 : 211.8

// recorded Fbg for O=[N+]([O-])c1ccc(O)c([N+](=O)[O-])c1 : 265

// recorded Fbg for Cn1cc[nH]c1=S : 310.8

// recorded Fbg for O=C1CN(/N=C/c2ccc([N+](=O)[O-])o2)C(=O)N1 : 219

// recorded Fbg for Cc1cccc(C)c1OCC(C)N (centres undefined) : 302.4

// recorded Fbg for CCOC(=O)C(C)(C)Oc1ccc(Cl)cc1 [CLOFIBRATE] : 221

// recorded Fbg for C[C@H]1O[C@H](O[C@H]2[C@H](O)[C@@H](O)[C@@H](O[C@H]3[C@H](O)[C@@H](O)C(O)O[C@@H]3CO)O[C@@H]2CO)[C@H](O)[C@@H](O)[C@@H]1N[C@H]1C=C(CO)[C@@H](O)[C@H](O)[C@H]1O (some centres undefined) : 274.6

// recorded Fbg for OCCN1CCN(CCCN2c3ccccc3Sc3ccc(C(F)(F)F)cc32)CC1 : 232.5

###

Would you kindly list Ht for each of these molecules?
- Species on record: Rattus norvegicus
- Test summary: Open TG-GATES - Regimen: Daily Repeat
- Assay type: toxicity, organism-based, Sprague-Dawley
- Design: regimen Daily Repeat, gender Male, age 6 weeks
- Assay context: in vivo, po, 0 mg/kg, 72 h, tissue Blood, route gavage, dose level Control, time 3 day
Respond with the bare value in %.

// recorded Ht for C[C@H]1C(=O)O[C@@H]2CCN3CC=C(COC(=O)[C@](C)(O)[C@]1(C)O)[C@H]23 : 39.5

// recorded Ht for C=C(C)[C@H]1Cc2c(ccc3c2O[C@@H]2COc4cc(OC)c(OC)cc4[C@@H]2C3=O)O1 : 40.7

// recorded Ht for Cn1cc[nH]c1=S : 38.2

// recorded Ht for O=C1CN(/N=C/c2ccc([N+](=O)[O-])o2)C(=O)N1 : 39.1

###

- Species on record: Rattus norvegicus
- Test summary: Open TG-GATES - Regimen: Single
- Format: toxicity, organism-based, Sprague-Dawley
- Design: regimen Single, gender Male, age 6 weeks
- Assay context: in vivo, po, 0 mg/kg, 9 h, tissue Plasma, route gavage, dose level Control
Classification field: enter True for LDH values not below 100 IU/L, False for values below it.

### Prompt Does the reported LDH for OCCN1CCN(CCCN2c3ccccc3Sc3ccc(C(F)(F)F)cc32)CC1 [FLUPHENAZINE] fall at or above the 100 IU/L mark?
### Response False

### Prompt Does the reported LDH for O=[N+]([O-])c1ccc(O)c([N+](=O)[O-])c1 [2,4-DINITROPHENOL] fall at or above the 100 IU/L mark?
### Response True

### Prompt Does the reported LDH for CCOC(=O)C(C)(C)Oc1ccc(Cl)cc1 [CLOFIBRATE] fall at or above the 100 IU/L mark?
### Response True

### Prompt Does the reported LDH for C[C@H]1C(=O)O[C@@H]2CCN3CC=C(COC(=O)[C@](C)(O)[C@]1(C)O)[C@H]23 [MONOCROTALINE] fall at or above the 100 IU/L mark?
### Response True

### Prompt Does the reported LDH for C=C(C)[C@H]1Cc2c(ccc3c2O[C@@H]2COc4cc(OC)c(OC)cc4[C@@H]2C3=O)O1 [ROTENONE] fall at or above the 100 IU/L mark?
### Response False

### Prompt Does the reported LDH for Cc1ccc2cc3c(ccc4ccccc43)c3c2c1CC3 [3-METHYLCHOLANTHRENE] fall at or above the 100 IU/L mark?
### Response True

### Prompt Does the reported LDH for Cn1cc[nH]c1=S [METHIMAZOLE] fall at or above the 100 IU/L mark?
### Response True

### Prompt Does the reported LDH for Cc1cccc(C)c1OCC(C)N (centres undefined) [MEXILETINE] fall at or above the 100 IU/L mark?
### Response True

### Prompt Does the reported LDH for C[C@H]1O[C@H](O[C@H]2[C@H](O)[C@@H](O)[C@@H](O[C@H]3[C@H](O)[C@@H](O)C(O)O[C@@H]3CO)O[C@@H]2CO)[C@H](O)[C@@H](O)[C@@H]1N[C@H]1C=C(CO)[C@@H](O)[C@H](O)[C@H]1O (some centres undefined) [ACARBOSE] fall at or above the 100 IU/L mark?
### Response False
